- procedure_details: Reducing power (DE) by Somogyi-Nelson method
- Format: physicochemical
- measurement_context: dextrose equivalent
readout_label: DE
Output spec: single numeric token, no unit.

The examples below pair each entry with its known result.
{"molecule": "OC[C@H]1O[C@H](O[C@H]2O[C@H](CO)[C@@H](O[C@H]3O[C@H](CO)[C@@H](O)[C@H](O)[C@H]3O)[C@H](O)[C@H]2O)[C@H](O)[C@@H](O)[C@@H]1O [PI, α-maltosyl glucoside]", "DE": 0.83}
{"molecule": "OC[C@H]1O[C@H](O[C@H]2O[C@H](CO)[C@@H](O[C@H]3O[C@H](CO)[C@@H](O[C@H]4O[C@H](CO)[C@@H](O[C@H]5O[C@H](CO)[C@@H](O)[C@H](O)[C@H]5O)[C@H](O)[C@H]4O)[C@H](O)[C@H]3O)[C@H](O)[C@H]2O)[C@H](O)[C@@H](O)[C@@H]1O [PIII, α-maltotetraosyl glucoside]", "DE": 0.10}
{"molecule": "OC[C@H]1O[C@H](O[C@H]2O[C@H](CO)[C@@H](O[C@H]3O[C@H](CO)[C@@H](O[C@H]4O[C@H](CO)[C@@H](O)[C@H](O)[C@H]4O)[C@H](O)[C@H]3O)[C@H](O)[C@H]2O)[C@H](O)[C@@H](O)[C@@H]1O [PII, α-maltotriosyl glucoside]", "DE": 0.35}
{"molecule": "OC[C@H]1O[C@H](O[C@H]2O[C@H](CO)[C@@H](O[C@H]3O[C@H](CO)[C@@H](O[C@H]4O[C@H](CO)[C@@H](O[C@H]5O[C@H](CO)[C@@H](O[C@H]6O[C@H](CO)[C@@H](O[C@H]7O[C@H](CO)[C@@H](O)[C@H](O)[C@H]7O)[C@H](O)[C@H]6O)[C@H](O)[C@H]5O)[C@H](O)[C@H]4O)[C@H](O)[C@H]3O)[C@H](O)[C@H]2O)[C@H](O)[C@@H](O)[C@@H]1O [PV, α-maltohexaosyl glucoside]", "DE": 0.23}

State the recorded DE for this entry: OC[C@H]1O[C@H](O[C@H]2O[C@H](CO)[C@@H](O[C@H]3O[C@H](CO)[C@@H](O[C@H]4O[C@H](CO)[C@@H](O[C@H]5O[C@H](CO)[C@@H](O[C@H]6O[C@H](CO)[C@@H](O)[C@H](O)[C@H]6O)[C@H](O)[C@H]5O)[C@H](O)[C@H]4O)[C@H](O)[C@H]3O)[C@H](O)[C@H]2O)[C@H](O)[C@@H](O)[C@@H]1O [PIV, α-maltopentaosyl glucoside] 0.27

###

- procedure_details: Acute toxicity in mice upon oral administration
- Assay type: in vivo
- measurement_context: mouse, in vivo
readout_label: LD50

State the recorded LD50 for this entry: OC[C@H]1O[C@H](O[C@H]2O[C@H](CO)[C@@H](O[C@H]3O[C@H](CO)[C@@H](O)[C@H](O)[C@H]3O)[C@H](O)[C@H]2O)[C@H](O)[C@@H](O)[C@@H]1O [Hydrous crystal] ≥ 50000 mg/kg

###

- procedure_details: Solubility in water
- Assay type: physicochemical
- measurement_context: 25° C. water; read-out: Solubility (as anhydride)
readout_label: solubility

State the recorded solubility for this entry: OC[C@H]1O[C@H](O[C@H]2O[C@H](CO)[C@@H](O[C@H]3O[C@H](CO)[C@@H](O)[C@H](O)[C@H]3O)[C@H](O)[C@H]2O)[C@H](O)[C@@H](O)[C@@H]1O [Hydrous crystal] ~1630 mg/mL

Where do these numbers come from? They come from patent US5912330A.
